Recorded values, source the supplement of paper PMC11208160.

Assay: recombinant UMI read abundance after kanamycin selection (control-corrected) (log10(CPM+1)); higher = more efficient recombination; extreme values may be limits of the assay; sequences stand for … in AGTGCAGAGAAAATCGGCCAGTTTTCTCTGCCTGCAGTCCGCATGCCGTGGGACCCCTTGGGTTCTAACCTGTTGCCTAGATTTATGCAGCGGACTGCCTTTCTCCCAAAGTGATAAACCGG…AGGTTGGTTTCACT; site = the 11-nt donor
Readings of recombinant UMI read abundance (log10) for the listed sequences
Please give only the number in your answer, with no unit.

Return recombinant UMI read abundance (log10) for the following sequence: CCGTAAGCATGGACCGGTTTTCCCGGTAATCCGTATTTGTG (site CCGTCAGCTCA)
0.0145

---

Assay: recombinant UMI read abundance after kanamycin selection (control-corrected) (log10(CPM+1)); higher = more efficient recombination; extreme values may be limits of the assay; sequences stand for … in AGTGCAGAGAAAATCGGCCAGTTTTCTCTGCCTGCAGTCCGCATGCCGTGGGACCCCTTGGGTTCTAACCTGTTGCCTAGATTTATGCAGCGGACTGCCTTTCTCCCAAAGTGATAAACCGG…AGGTTGGTTTCACT; site = the 11-nt donor
outcome measure: recombinant UMI read abundance (log10)

Consider the reported recombinant UMI read abundance (log10) for these sequences:
{"sequence input": "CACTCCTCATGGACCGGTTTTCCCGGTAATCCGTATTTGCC (site CACTCCGCTGG)", "recombinant UMI read abundance (log10)": 0.0071}
{"sequence input": "AGTACTACATGGACCGGTTTTCCCGGTAATCCGTATTTGAC (site AGAACTACTGT)", "recombinant UMI read abundance (log10)": 0.731}
{"sequence input": "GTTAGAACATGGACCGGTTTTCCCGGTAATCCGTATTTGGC (site GTTACAACTGC)", "recombinant UMI read abundance (log10)": 0}
{"sequence input": "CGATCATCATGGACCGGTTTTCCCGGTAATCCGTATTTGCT (site CGACCATCTCG)", "recombinant UMI read abundance (log10)": 0.019}

Return recombinant UMI read abundance (log10) for the following sequence: CGAAGACCATGGACCGGTTTTCCCGGTAATCCGTATTTGGG (site CGAGGACCTCC)
0.0232

Return recombinant UMI read abundance (log10) for the following sequence: CTTAATACATGGACCGGTTTTCCCGGTAATCCGTATTTGGC (site CTTAATACTGC)
0

Return recombinant UMI read abundance (log10) for the following sequence: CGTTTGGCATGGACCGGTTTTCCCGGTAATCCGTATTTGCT (site CGTTTGGCTAC)
0.00533

Return recombinant UMI read abundance (log10) for the following sequence: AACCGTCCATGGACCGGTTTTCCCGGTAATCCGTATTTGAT (site AACCCTCCTAT)
0.00675

Return recombinant UMI read abundance (log10) for the following sequence: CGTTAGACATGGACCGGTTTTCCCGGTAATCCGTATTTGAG (site CGTTAGACTGT)
0.00425

Return recombinant UMI read abundance (log10) for the following sequence: CGATTCCCATGGACCGGTTTTCCCGGTAATCCGTATTTGCT (site CTATTCCCTAG)
0

Return recombinant UMI read abundance (log10) for the following sequence: CCGTTTGCATGGACCGGTTTTCCCGGTAATCCGTATTTGTG (site CCGTTCGCTCA)
0.0182

Return recombinant UMI read abundance (log10) for the following sequence: TTTAAAGCATGGACCGGTTTTCCCGGTAATCCGTATTTGAC (site TTTAAAGCTGT)
0

Return recombinant UMI read abundance (log10) for the following sequence: CTACTACCATGGACCGGTTTTCCCGGTAATCCGTATTTGCT (site CTTCTACCTAG)
0

Return recombinant UMI read abundance (log10) for the following sequence: AATTGCTCATGGACCGGTTTTCCCGGTAATCCGTATTTGCC (site AATTGCTCTGG)
2.51

Return recombinant UMI read abundance (log10) for the following sequence: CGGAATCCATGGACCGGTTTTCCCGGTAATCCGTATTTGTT (site AGGAATCCTTA)
0

Return recombinant UMI read abundance (log10) for the following sequence: CTGTACGCATGGACCGGTTTTCCCGGTAATCCGTATTTGTC (site CTGTACGCTGA)
2.56

Return recombinant UMI read abundance (log10) for the following sequence: CGTTTGCCATGGACCGGTTTTCCCGGTAATCCGTATTTGCT (site CGTTTGTCTAG)
0

Return recombinant UMI read abundance (log10) for the following sequence: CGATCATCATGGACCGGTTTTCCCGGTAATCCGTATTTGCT (site CGATGATCTAT)
0.00469

---

Readings of recombinant UMI read abundance (log10) for the listed sequences
Experiment: recombinant UMI read abundance after kanamycin selection (control-corrected) (log10(CPM+1)); higher = more efficient recombination; extreme values may be limits of the assay; sequences stand for … in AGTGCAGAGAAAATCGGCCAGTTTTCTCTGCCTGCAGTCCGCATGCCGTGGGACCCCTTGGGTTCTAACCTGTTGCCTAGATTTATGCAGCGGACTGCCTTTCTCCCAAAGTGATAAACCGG…AGGTTGGTTTCACT; site = the 11-nt donor

Consider the reported recombinant UMI read abundance (log10) for these sequences:
{"sequence input": "ACTAGAACATGGACCGGTTTTCCCGGTAATCCGTATTTGAA (site ACTAGAACTTT)", "recombinant UMI read abundance (log10)": 1.45}
{"sequence input": "AGTAGTACATGGACCGGTTTTCCCGGTAATCCGTATTTGGT (site AGTAGTACTAC)", "recombinant UMI read abundance (log10)": 0.706}
{"sequence input": "GGTACTGCATGGACCGGTTTTCCCGGTAATCCGTATTTGCC (site GCTACTGCTGG)", "recombinant UMI read abundance (log10)": 0.662}
{"sequence input": "AAGCACCCATGGACCGGTTTTCCCGGTAATCCGTATTTGGG (site AAGCACTCTCC)", "recombinant UMI read abundance (log10)": 0.371}

Then this sequence:
Return recombinant UMI read abundance (log10) for the following sequence: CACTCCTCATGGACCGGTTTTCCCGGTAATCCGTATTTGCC (site CACTCCTCTAG)
1.36

---

Test: recombinant barcode read abundance after kanamycin selection (control-corrected) (log10(CPM+1)); higher = more efficient recombination; sequences stand for … in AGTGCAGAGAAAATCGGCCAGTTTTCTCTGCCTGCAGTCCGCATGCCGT…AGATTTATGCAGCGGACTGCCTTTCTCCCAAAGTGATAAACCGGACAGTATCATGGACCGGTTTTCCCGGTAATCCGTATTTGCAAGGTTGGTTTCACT; site = the 11-nt target
Short version: recombinant barcode read abundance (log10) at least 0.3 is t, less is f.

{"sequence input": "GATTAGACTTGGGTTCTAACCTGTTGCCT (site TATTAGACTAG)", "label class": "t"}

Exam item: decide whether the reported recombinant barcode read abundance (log10) for ACGCACTCTTGGGTTCTAACCTGTTGCCT (site ACGCAGTCTAG) is at least 0.3.
f

Exam item: decide whether the reported recombinant barcode read abundance (log10) for CTACACTCTTGGGTTCTAACCTGTTGCCT (site CGACACTCTAG) is at least 0.3.
f

Exam item: decide whether the reported recombinant barcode read abundance (log10) for CAGAGTACTTGGGTTCTAACCTGTTGCCT (site CACAGTGCTAG) is at least 0.3.
f

Exam item: decide whether the reported recombinant barcode read abundance (log10) for CGCAAGCCTTGGGTTCTAACCTGTTGCAT (site CGTAAGCCTAT) is at least 0.3.
f

Exam item: decide whether the reported recombinant barcode read abundance (log10) for GGTTAGTCTTGGGTTCTAACCTGTTGCCG (site GGTTAGTCTCG) is at least 0.3.
t

Exam item: decide whether the reported recombinant barcode read abundance (log10) for GTGTCATCTTGGGTTCTAACCTGTTGCCT (site GTGTCACCTAG) is at least 0.3.
f

Exam item: decide whether the reported recombinant barcode read abundance (log10) for AACACTGCTTGGGTTCTAACCTGTTGCCT (site AACAATGCTAG) is at least 0.3.
f

Exam item: decide whether the reported recombinant barcode read abundance (log10) for ATATGAGCTTGGGTTCTAACCTGTTGCCG (site ATATGCGCTCG) is at least 0.3.
f

Exam item: decide whether the reported recombinant barcode read abundance (log10) for TATTAACCTTGGGTTCTAACCTGTTGCCT (site TATTATCCTAG) is at least 0.3.
f

Exam item: decide whether the reported recombinant barcode read abundance (log10) for ATGGGCCCTTGGGTTCTAACCTGTTGCTT (site ATGGGCCCTAA) is at least 0.3.
t

Exam item: decide whether the reported recombinant barcode read abundance (log10) for GTACGACCTTGGGTTCTAACCTGTTGCAC (site AACAAGACTAG) is at least 0.3.
f
